Target: T1, Bfl-1, Q16548
T1 chain: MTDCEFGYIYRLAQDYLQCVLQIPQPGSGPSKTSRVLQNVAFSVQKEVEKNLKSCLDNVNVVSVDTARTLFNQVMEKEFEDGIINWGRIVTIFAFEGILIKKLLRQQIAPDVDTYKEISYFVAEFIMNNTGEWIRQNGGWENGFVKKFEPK
Assay: peptide SPOT array, c-Myc-tagged receptor at 1 uM or 100 nM, anti-c-Myc-Cy3
readoutType: SPOT signal as a fraction of Bim BH3's signal on the same receptor and array

[[record]]
binder = "YIVLGLRKTTLQKVLKEVAELVGRVG"
recordedvalue = 0.23

[[record]]
binder = "CHGLRELALNYHLLSDELLLALSSEK [FBXL3]"
recordedvalue = 0.04

[[record]]
binder = "SMRRNAMGVGLVFELDLFTTRHISHW"
recordedvalue = 0.17

[[record]]
binder = "ADVHGIWSRLFCDFLDEFEVLDTTGE [UBA6]"
recordedvalue = 0.04


I. MEMYQPSAVVLQCGLDSLSGDRLGCF [HDAC2]
II. SMRRNAMGVGLVFEADLFTTRHISHW
III. DFMGRTFAKPLVKMADEAYCPPRFPP [OTOF]
IV. YIVLGLRKTTDQKVGKEVAELVGRVG
V. SWFIQSLCAMDKQYADKLEFMHILTR [CASP3]
Qu. // smallest SPOT signal as a fraction of Bim BH3's signal on the same receptor and array at index 0, largest at the end # list labels per requested ordering
Ans. I, V, III, IV, II
